# run description: Oral bioavailability in rat
# Format: ADME, organism-based
# measurement parameters: in vivo
readout: bioavailability (%)
Use % as the unit, but write only the number.

So, CC(C)CN1C(=O)C=C(Cl)C1(O)c1ccc(F)cc1 (stereo unspecified) ? Its bioavailability was 98

----------
# run description: Half life in rat
# Format: ADME, organism-based
# measurement parameters: in vivo
readout: half-life (h)
Use h as the unit, but write only the number.

So, CC(C)CN1C(=O)C=C(Cl)C1(O)c1ccc(F)cc1 (stereo unspecified) ? Its half-life was 3.5

----------
# run description: Antiproliferative activity against human PANC cells assessed as reduction in cell viability after 3 days by MTT assay
# Type: functional, cell-based
# measurement parameters: 72 h
Each entry below carries its recorded IC50.
Use nM as the unit, but write only the number.

So, O=C1C=C(Cl)C(O)(c2ccccc2)N1Cc1ccccc1 (configuration not stated) ? Its IC50 was 674

So, CCCCCN(CCCCC)C(=O)C(CCC(=O)O)NC(=O)c1ccc(Cl)c(Cl)c1 (configuration not stated) [LORGLUMIDE SODIUM] ? Its IC50 was 316

So, CC(C)CN1C(=O)C=C(Cl)C1(O)c1ccccc1 (configuration not stated) ? Its IC50 was 27

So, CC(C)CN1C(=O)C=C(Cl)C1(O)c1ccc(F)cc1 (configuration not stated) ? Its IC50 was 18

So, CC(C)CN1C(=O)C=C(Cl)C1(O)c1ccc(Cl)cc1 (configuration not stated) ? Its IC50 was 22

So, CN1C(=O)C(NC(=O)c2cc3ccccc3[nH]2)N=C(c2ccccc2)c2ccccc21 (configuration not stated) ? Its IC50 was 480

----------
# target desc: Cholecystokinin receptor type A (Rattus norvegicus)
# Sequence (P30551 whole entry): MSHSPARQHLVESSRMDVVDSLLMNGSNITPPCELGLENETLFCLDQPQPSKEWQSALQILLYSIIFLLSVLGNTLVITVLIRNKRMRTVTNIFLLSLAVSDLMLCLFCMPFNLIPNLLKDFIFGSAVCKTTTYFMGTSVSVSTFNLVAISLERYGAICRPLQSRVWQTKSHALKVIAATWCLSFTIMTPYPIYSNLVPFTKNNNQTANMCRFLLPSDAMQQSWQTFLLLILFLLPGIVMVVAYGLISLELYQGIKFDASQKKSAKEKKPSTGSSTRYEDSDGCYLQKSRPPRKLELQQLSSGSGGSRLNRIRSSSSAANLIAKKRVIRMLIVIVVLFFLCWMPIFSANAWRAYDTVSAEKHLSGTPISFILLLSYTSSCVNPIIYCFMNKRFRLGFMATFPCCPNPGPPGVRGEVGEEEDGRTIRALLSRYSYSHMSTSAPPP
# run description: Displacement of [125]I-CCK-8 from CCK-A receptor in rat pancreatic membrane after 2 hrs by gamma counting
Each entry below carries its recorded pIC50.
In textbook form, pIC50 equals minus log to base ten of the concentration in mol/L.

Example results:
{"columns": ["molecule", "target desc", "pIC50"],
 "data": [
  ["O=C1C=C(Cl)C(O)(c2ccccc2)N1Cc1ccccc1 (stereo unspecified)", "Cholecystokinin receptor type A (Rattus norvegicus)", 6.10],
  ["O=C1C=C(Cl)C(O)(c2ccccc2)N1C1CC1 (stereo unspecified)", "Cholecystokinin receptor type A (Rattus norvegicus)", 5.12],
  ["CCCCCCN1C(=O)C=C(Cl)C1(O)c1ccc(Cl)cc1 (stereo unspecified)", "Cholecystokinin receptor type A (Rattus norvegicus)", 5.44]
]}

So, CC(C)CN1C(=O)C=C(Cl)C1(O)c1ccc(Cl)cc1 (stereo unspecified) ? Its pIC50 was 8.10

----------
# run description: Displacement of [125]I-CCK-8 from CCK-B receptor in guinea pig cerebral cortex after 2 hrs by gamma counting
# Format: tissue-based, Cavia porcellus
readout: pIC50
In textbook form, pIC50 equals minus log to base ten of the concentration in mol/L.

Example results:
{"columns": ["compound", "pIC50"],
 "data": [
  ["CC(C)CN1C(=O)C=C(Cl)C1(O)c1ccc(F)cc1 (stereo not drawn)", 6.12],
  ["O=C1C=C(Cl)C(O)(c2ccc(Cl)cc2)N1C1CCCC1 (stereo not drawn)", 5.00],
  ["CC(C)(C)N1C(=O)C=C(Cl)C1(O)c1ccccc1 (stereo not drawn)", 6.05],
  ["CC(C)CN1C(=O)C=C(Cl)C1(O)c1ccccc1 (stereo not drawn)", 5.92],
  ["O=C1C=C(Cl)C(O)(c2ccccc2)N1C1CCCC1 (stereo not drawn)", 6.08]
]}

So, CC(C)N1C(=O)C=C(Cl)C1(O)c1ccccc1 (stereo not drawn) ? Its pIC50 was 6.05

So, O=C1C=C(Cl)C(O)(c2ccccc2)N1Cc1ccccc1 (stereo not drawn) ? Its pIC50 was 7.66

So, CC(C)N1C(=O)C=C(Cl)C1(O)c1ccc(Cl)cc1 (stereo not drawn) ? Its pIC50 was 5.43

So, CC(C)CN1C(=O)C=C(Cl)C1(O)c1ccc(Cl)cc1 (stereo not drawn) ? Its pIC50 was 6.40
